- Assay Overview: The drug is tested on Streptococcus anginosus strain: DSM20563 for biotransformation under microaerobic condition. The drug concentrations were measured over 6 timepoints collected between 0 and 12 hours of incubation by liquid-chromatography-coupled mass spectrometry (LC–MS)
- Assay type: ADME
- Design: dose 5 uM, timepoint 0, 1.5, 3, 6, 9, 12 hours
- Measurement Parameters: 5 µM

- Compound: "C[C@@H]1C[C@H]2[C@@H]3CCC4=CC(=O)C=C[C@]4(C)[C@@]3(F)[C@@H](O)C[C@]2(C)[C@@]1(O)C(=O)CO [DEXAMETHASONE]"
  Bacterial Biotransformation: "Compound NOT metabolized"
- Compound: "CNC(=C[N+](=O)[O-])NCCSCc1ccc(CN(C)C)o1 [RANITIDINE]"
  Bacterial Biotransformation: "Compound NOT metabolized"
- Compound: "CCOC(=O)[C@H](CCc1ccccc1)N[C@@H](C)C(=O)N1[C@H](C(=O)O)C[C@@H]2CCC[C@@H]21"
  Bacterial Biotransformation: "Compound NOT metabolized"

From: ChEMBL document CHEMBL5724806
